# Tested on: SNB-19 CNS
# experiment_description: NCI tumour cell line growth inhibition, 48 h; in the data active = GI50 below about 0.43 µM; inactive = the rest
Outcomes: TRUE = active, FALSE = inactive

• c1ccc(/C(=N\Nc2ccc3ccccc3n2)c2ccccn2)cc1 = FALSE
• NS(=O)(=O)c1ccc(N2N=C(c3cccs3)CC2c2ccccc2O)cc1 (centres undefined) = FALSE
• O=c1[nH]nc(-c2ccccc2)c2c(-c3ccccc3)onc12 = FALSE
• CCN(CC)CCC(=O)O[C@H]1CC[C@H](CC(C)[C@H]2CC(=O)C(C)C=C(C)[C@H](OC(=O)CCN(CC)CC)C(OC)C(=O)[C@@H](C)CC(C)/C=C/C=C/C=C(C)C(OC)CC3CC[C@H](C)[C@](O)(O3)C(=O)C(=O)N3CCCCC3C(=O)O2)CC1OC (some centres undefined) = TRUE
• Oc1ccc(O)c2c1C1(Cl)C(Cl)=C(Cl)C2(Cl)C1(Cl)Cl = FALSE
• O=C1c2ccn(CCCCN(CCO)CCO)c2C(=O)c2c1c(O)c1ccccc1c2O = FALSE
• O=[N+]([O-])c1cc2c(ccc3occc32)o1 = FALSE
• Cc1c(C(N)=O)sc2c1c(=O)n(Cc1ccccc1)c1nnc(S(=O)(=O)CC(=O)Nc3ccc(Cl)cc3)n21 = FALSE
• CCC(=O)c1c(C(F)(F)F)n([O-])c2ccccc2[n+]1=O = FALSE
